MEASURED_ON: activated human blood coagulation factor X (Homo sapiens)
Construct: purchased Enzyme Research Co
ASSAY_PROTOCOL: Determination of activity of inhibiting the activated blood coagulation factor X
Type: biochemical
CONDITION_SUMMARY: Table 2; same manner as Example 93; read-out: Activity of inhibiting activated blood coagulation factor X (pIC50) (converted)
IC50 values for the compounds below.
Express it in nM; write the number only.

Record lookup: for activated human blood coagulation factor X (Homo sapiens), what IC50 belongs to N=C(N)c1cccc(OC[C@H](Cc2ccc(OC3CCNCC3)cc2)NS(=O)(=O)c2ccc(C(=O)O)cc2)c1.O=C(O)C(F)(F)F.O=C(O)C(F)(F)F [Compound of Ex. 167, bistrifluoroacetate] ?
501

Recall the recorded IC50 for N=C(N)c1cccc(OCCNC(=O)c2ccc(CN)cc2)c1.O=C(O)C(F)(F)F.O=C(O)C(F)(F)F [Compound of Ex. 98, bistrifluoroacetate] with activated human blood coagulation factor X (Homo sapiens) and state it.
3160

Request body: readout IC50, system activated human blood coagulation factor X (Homo sapiens), query CC(=N)N1CCC(Oc2ccc(C(=O)NCCOc3cccc(C(=N)N)c3)cc2)CC1.O=C(O)C(F)(F)F.O=C(O)C(F)(F)F [Compound of Ex. 99, bistrifluoroacetate] . Return the value.
251

activated human blood coagulation factor X (Homo sapiens) / IC50 / CC(=N)N1CCC(Oc2ccc(C[C@@H](COc3cc(C(=N)N)ccc3CC(=O)C(=O)O)NS(=O)(=O)c3ccccc3)cc2)CC1.O=C(O)C(F)(F)F.O=C(O)C(F)(F)F [Compound of Ex. 181, bistrifluoroacetate] : value?
20

// lookup IC50 | system=activated human blood coagulation factor X (Homo sapiens) | key= CC(=N)N1CCC(Oc2ccc(C[C@@H](COc3cccc(C(=N)N)c3)NS(=O)(=O)c3ccc(/C=C/C(=O)O)cc3)cc2)CC1.O=C(O)C(F)(F)F.O=C(O)C(F)(F)F [Compound of Ex. 171, bistrifluoroacetate]
100

Short answer please: IC50, activated human blood coagulation factor X (Homo sapiens), entry CC(=N)N1CCC(Oc2ccc(C[C@@H](COc3cccc(C(=N)N)c3)NS(=O)(=O)c3ccc(C(=O)O)cc3)cc2)CC1.O=C(O)C(F)(F)F.O=C(O)C(F)(F)F [Compound of Ex. 168, bistrifluoroacetate]
31.6

----------
MEASURED_ON: activated human blood coagulation factor X (Homo sapiens, UniProt P00742)
Construct: purchased Enzyme Research Co
Sequence (P00742 235-488 limits assumed): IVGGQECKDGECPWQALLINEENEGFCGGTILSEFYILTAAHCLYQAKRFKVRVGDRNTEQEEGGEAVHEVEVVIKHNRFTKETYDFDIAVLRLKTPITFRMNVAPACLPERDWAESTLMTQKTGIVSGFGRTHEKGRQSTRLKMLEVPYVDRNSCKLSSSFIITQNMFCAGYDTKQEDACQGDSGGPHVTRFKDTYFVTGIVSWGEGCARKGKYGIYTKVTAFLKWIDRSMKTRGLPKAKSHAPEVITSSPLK
Sequence (P00742 41-179 partner limits assumed): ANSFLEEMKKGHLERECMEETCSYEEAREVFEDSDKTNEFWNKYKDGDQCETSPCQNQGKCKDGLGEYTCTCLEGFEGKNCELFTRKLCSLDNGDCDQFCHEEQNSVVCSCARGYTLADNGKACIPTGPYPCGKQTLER
ASSAY_PROTOCOL: Determination of activity of inhibiting the activated blood coagulation factor X
Assay type: biochemical
CONDITION_SUMMARY: Table 3; same manner as Example 93; read-out: Activity of inhibiting activated blood coagulation factor X (pIC50) (converted)
Protocol: 130 μl of 100 mM Tris-HCl buffer adjusted to pH 8.4 was added to 10 μl of an aqueous solution of a compound to be tested. Then 10 μl of a 0.5 unit/ml solution of activated human blood coagulation factor X (a product of Enzyme Research Co.) in Tris-HCl buffer hydrochloride of pH 8.4 was added to the resultant mixture. […] The absorbance was determined and then the initial reaction rate was determined. […]
REPORTED_PROPERTY: IC50 (nM)
Numbers only; they are read as nM.

molecule="N=C(N)c1ccc(C(=O)N[C@@H](COc2cc(C(=N)N)ccc2CC(=O)C(=O)O)CC(=O)O)cc1.O=C(O)C(F)(F)F.O=C(O)C(F)(F)F [Compound of Ex. 186, bistrifluoroacetate]" measured_number=20
molecule="N=C(N)c1ccc(CC(=O)C(=O)O)c(OC[C@@H](CC(=O)O)NC(=O)c2ccc(S(=O)(=O)N3CCCC3)cc2)c1.O=C(O)C(F)(F)F [Compound of Ex. 195, trifluoroacetate]" measured_number=31.6
molecule="CN(C)C(=O)c1ccc(C(=O)N[C@@H](COc2cc(C(=N)N)ccc2CC(=O)C(=O)O)CC(=O)O)cc1.O=C(O)C(F)(F)F [Compound of Ex. 188, trifluoroacetate]" measured_number=7.94

What value of IC50 has been reported for the following molecule? N=C(N)c1ccc(CC(=O)C(=O)O)c(OC[C@@H](CC(=O)O)NC(=O)c2ccc(C(=O)N3CCCC3)cc2)c1.O=C(O)C(F)(F)F [Compound of Ex. 191, trifluoroacetate]
3.98
